Where these numbers come from: ChEMBL document CHEMBL3351374

run_description: Antiviral activity against Influenza A virus (A/HK/7/1987(H3N2)) infected in MDCK cells assessed as reduction in host cell viability after 72 hrs by MTS assay
Type: functional, cell-based, Influenza A virus (A/Hong Kong/7/1987(H3N2))
endpoint_name: pEC50
Units for pEC50: none; it is -log10 of a concentration expressed in mol/L.

Solved cases below.
[
  {
    "molecule": "NC(=O)c1ncn([C@@H]2O[C@H](CO)[C@@H](O)[C@H]2O)n1",
    "endpoint_name": "pEC50",
    "measured_number": 5.14
  },
  {
    "molecule": "CCCCCCCCO[C@@H]1[C@@H](OCCCCCCCC)[C@@H](OC)O[C@H](COCCOCCOCCOCCOCc2cn([C@H]3C(=O)N[C@@H]4Cc5ccc(c(Cl)c5)Oc5cc6cc(c5O)Oc5ccc(cc5Cl)[C@@H](O[C@@H]5O[C@H](CO)[C@@H](O)[C@H](O)[C@H]5NC(C)=O)[C@@H]5NC(=O)[C@H](NC(=O)[C@@H]6NC(=O)[C@@H](NC4=O)c4cc(O)cc(c4)Oc4cc3ccc4O)c3ccc(O)c(c3)-c3c(O)cc(O)cc3[C@@H](C(=O)O)NC5=O)nn2)[C@H]1OCc1ccc(OC)cc1",
    "endpoint_name": "pEC50",
    "measured_number": 5.92
  },
  {
    "molecule": "NC12CC3CC(CC(C3)C1)C2",
    "endpoint_name": "pEC50",
    "measured_number": 6.30
  },
  {
    "molecule": "C.CCCCCCCCO[C@H]1[C@@H](OC)O[C@H](COCCOCCOCCOCCOCc2cn([C@H]3C(=O)N[C@@H]4Cc5ccc(c(Cl)c5)Oc5cc6cc(c5O)Oc5ccc(cc5Cl)[C@@H](O[C@@H]5O[C@H](CO)[C@@H](O)[C@H](O)[C@H]5NC(C)=O)[C@@H]5NC(=O)[C@H](NC(=O)[C@@H]6NC(=O)[C@@H](NC4=O)c4cc(O)cc(c4)Oc4cc3ccc4O)c3ccc(O)c(c3)-c3c(O)cc(O)cc3[C@@H](C(=O)O)NC5=O)nn2)[C@@H](O)[C@@H]1OCCCCCCCC",
    "endpoint_name": "pEC50",
    "measured_number": 5.66
  },
  {
    "molecule": "CC(=O)N[C@H]1[C@H]([C@H](O)[C@H](O)CO)OC(C(=O)O)=C[C@@H]1NC(=N)N",
    "endpoint_name": "pEC50",
    "measured_number": 5.05
  }
]

// next entry
Entry CC(N)C12CC3CC(CC(C3)C1)C2 (configuration not stated) , pEC50 reported as 7.34

---

System: Influenza B virus
run_description: Antiviral activity against Influenza B virus (B/HK/05/1972) infected in MDCK cells assessed as reduction in host cell viability after 72 hrs by MTS assay
Format: functional, cell-based
protocol_conditions: B/Hong Kong/05/1972, MDCK
EC50 listing for selected compounds.
State the answer as a number, implicitly in µM.

Entry CC(=O)N[C@H]1[C@H]([C@H](O)[C@H](O)CO)OC(C(=O)O)=C[C@@H]1NC(=N)N [ZANAMIVIR] , EC50 reported as 9.4

Entry CCCCCCCCO[C@@H]1[C@@H](OCCCCCCCC)[C@@H](OC)O[C@H](COCCOCCOCCOCCOCc2cn([C@H]3C(=O)N[C@@H]4Cc5ccc(c(Cl)c5)Oc5cc6cc(c5O)Oc5ccc(cc5Cl)[C@@H](O[C@@H]5O[C@H](CO)[C@@H](O)[C@H](O)[C@H]5NC(C)=O)[C@@H]5NC(=O)[C@H](NC(=O)[C@@H]6NC(=O)[C@@H](NC4=O)c4cc(O)cc(c4)Oc4cc3ccc4O)c3ccc(O)c(c3)-c3c(O)cc(O)cc3[C@@H](C(=O)O)NC5=O)nn2)[C@H]1OCc1ccc(OC)cc1 , EC50 reported as 1.5

Entry NC(=O)c1ncn([C@@H]2O[C@H](CO)[C@@H](O)[C@H]2O)n1 [RIBAVIRIN] , EC50 reported as 8.2
